assay: AUC in ICR mouse at 1 mg/kg, po administered as cassette dose and measured upto 8 hrs by LC-MS/MS analysis; assay type: ADME, organism-based; parameters: time < 8 hrs, dose 1 mg/kg, route po; settings: in vivo
recorded metric: AUC at 8 h (ng·h/mL)
Return type: number; implicit unit ng·h/mL.

For the molecule "CC(C)C[C@H](CN)N1CCc2c(-c3cccnc3)csc2C1=O" , report AUC at 8 h.
13.1
